- protocol-notes: Waters ACQUITY UPLC BEH C18, 100 × 2.1 mm, 1.7 µm, 40 °C, 0.3 to 0.4 mL/min, estimated dead time 0.63 min; A: water + 0.1% formic acid; B: methanol + 0.1% formic acid; gradient (min/%B) 0/0.5 0.1/0.5 10/80 10.1/99.5 12/99.5
- experimental-conditions: stereoisomer not certain
measured-quantity: LC retention time (min)

Worked cases, LC retention time given:
{"columns": ["compound", "measurement-units", "LC retention time"],
 "data": [
  ["CCC1CN2CCc3cc(OC)c(OC)cc3C2CC1CC1NCCc2cc(O)c(OC)cc21 (configuration not stated)", "min", 2.98],
  ["CC(C)=CCc1cc(C=CC(=O)c2ccc(O)cc2O)ccc1O", "min", 8.61],
  ["COc1c2c(cc3c(-c4ccc5c(c4)OCO5)c4c(cc13)C(=O)OC4)OCO2", "min", 8.93],
  ["COc1cc(-c2oc3cc(O)cc(O)c3c(=O)c2O)cc(O)c1O", "min", 5.37],
  ["COc1ccc(C=CC(=O)c2c(O)cc(OC3OC(CO)C(O)C(O)C3OC3OC(C)C(O)C(O)C3O)cc2O)cc1 (configuration not stated)", "min", 5.42]
]}

[1] OCC1OC(Oc2cc3c(O)cc(O)cc3[o+]c2-c2cc(O)c(O)c(O)c2)C(OC2OCC(O)C(O)C2O)C(O)C1O (configuration not stated)
[2] Oc1ccc(C2Oc3cc(O)cc(O)c3CC2O)cc1 (configuration not stated)
Qu. Pick one: 1 or 2 . Which one has the lower reported LC retention time? Indicate which entry you chose by stating its label.
Ans. 1
(1: 2.65 min, 2: 4.91 min)

Attribution: the RepoRT retention time repository
